Tested on: LXFL 529
Assay: NCI tumour cell line growth inhibition, 48 h
The source made the active and inactive calls. No stated cut-off is given here; in the data, active = GI50 up to about 1.1 µM and inactive = higher.
Outcome codes: active, inactive

>>> print(df.to_string())
                                    compound  discrete_label
 0  CC(C)(C)NC(=O)C12C3C4C1C1C2C3C41I (configuration not stated)        inactive
 1  CN(Cc1ccccc1)/C(=N\C#N)N(Cc1ccccc1)Cc1ccccc1        inactive
 2  Cc1cc(C)nc(NS(=O)(=O)c2ccc(NC(=O)c3cccc4c(=O)c5ccccc5[nH]c34)cc2)n1        inactive
 3    C=C[C@@]1(O)CCCC2=C(C(=O)OCC)CC[C@]21C        inactive
 4                     CC(C)c1cccc(=O)c(O)c1        inactive
 5          CC1(C)C(c2ccccc2)=NN(O)c2ccccc21        inactive
 6      Cc1nc(N)sc1C(=O)/C=C\c1ccc2c(c1)OCO2        inactive
 7  CCOC(=O)Oc1c(OC)cc(C(=O)NC2CCc3cc(OC)c(OC)c(OC)c3-c3ccc(SC)c(=O)cc32)cc1OC (configuration not stated)          active
 8  COc1ccc([C@@H]2C[C@@H]3C(=O)OC(=O)[C@@H]3c3c2c2ccccc2n3C)cc1        inactive
 9  Cc1cccc(NC2=NC(=O)C(CC(=O)Nc3ccc(Cl)cc3C)S2)c1 (configuration not stated)        inactive
10  C=CC1(NS(=O)(=O)c2ccc(C)cc2)CCC(C(C)(C)C)CC1 (configuration not stated)        inactive
11      N#C/C(=C\c1ccc(CP(=O)(O)O)cc1)C(N)=O        inactive
12  CC(C)(C)OC(=O)NC(Cc1ccccc1)C(=S)N1CCCC1 (configuration not stated)        inactive
13         CCOC(=O)c1ccc(NC(=O)SCCC(=O)O)cc1        inactive
14  CCN(CC)CCCNC(=O)Cc1ccccc1Nc1c(Cl)cccc1Cl        inactive
15         CCOC(=O)c1sc(Nc2cc(Cl)ccc2Cl)nc1C        inactive
16             CC(C)(c1ccccc1)c1ccc(OC#N)cc1        inactive
17  NC(=O)CC(N/C=C1/N=C(c2ccccc2)OC1=O)C(=O)O (configuration not stated)        inactive
18  CCN(CC)CCC1CC/C(=C\c2ccc(OC)cc2)C1=O (configuration not stated)        inactive
19                      O=C1CCCN(c2ccccc2)N1        inactive
20  O=c1ccn([C@@H]2C[C@H](CO)C[S+]([O-])C2)c(=O)[nH]1 (some centres not stated)        inactive
21  COc1cc2c[n+](C)c3c4cc(OC)c(OC)cc4c(OCCCCCCCCOc4cc5c6cc(OC)c(OC)cc6c[n+](C)c5c5cc(OC)c(OC)cc45)cc3c2cc1OC        inactive
